Experiment: Solubility of the compound of Formula (1) in non-ionic surfactants
Format: physicochemical
Settings: Gelucire 50/13 (non-ionic surfactant), organic solvent or mixture, thermodynamic from solid; in Gelucire 50/13 (fatty acid ester/glycerol derivative)
readoutKind: solubility at 40 min

Returns the measured solubility at 40 min for the input molecule. Input: Cc1nn(C)cc1-c1nc2c(N3CCN(Cc4ccc(Cl)cc4)CC3)c(Cl)cnc2[nH]1.O=C(O)/C=C/C(=O)O [compound of Formula (1) fumarate] < 2700 µg/mL

###

Assay: Solubility of the compound of Formula (1) in non-ionic surfactants
Type: physicochemical
Conditions: Capryol PC MG (non-ionic surfactant), oil or lipid, thermodynamic from solid; in Capryol PC MG (fatty acid ester)
readoutKind: solubility at 40 min

Consider the compound shown here: Cc1nn(C)cc1-c1nc2c(N3CCN(Cc4ccc(Cl)cc4)CC3)c(Cl)cnc2[nH]1.O=C(O)/C=C/C(=O)O [compound of Formula (1) fumarate] What is its recorded solubility at 40 min? < 3.6 mg/mL

###

Assay: Solubility of the compound of Formula (1) in non-ionic surfactants
Assay type: physicochemical
Settings: Miglyol 812N (non-ionic surfactant), oil or lipid, thermodynamic from solid; in Miglyol 812N (glycerol derivative)
readoutKind: solubility at 40 min

What does the data say about its solubility at 40 min? Entry: Cc1nn(C)cc1-c1nc2c(N3CCN(Cc4ccc(Cl)cc4)CC3)c(Cl)cnc2[nH]1.O=C(O)/C=C/C(=O)O [compound of Formula (1) fumarate] < 3200 µg/mL

###

Experiment: Solubility of the compound of Formula (1) in non-ionic surfactants
Assay type: physicochemical
Settings: Labrafil 1944 (non-ionic surfactant), oil or lipid, thermodynamic from solid; in Labrafil 1944 (glycerol derivative)
readoutKind: solubility at 40 min

I have this compound here, Cc1nn(C)cc1-c1nc2c(N3CCN(Cc4ccc(Cl)cc4)CC3)c(Cl)cnc2[nH]1.O=C(O)/C=C/C(=O)O [compound of Formula (1) fumarate] , and I need its recorded solubility at 40 min. < 5000 µg/mL

###

Assay: Solubility of the compound of Formula (1) in non-ionic surfactants
Format: physicochemical
Conditions: Labrafac PC (non-ionic surfactant), oil or lipid, thermodynamic from solid; in Labrafac PC (fatty acid ester)
readoutKind: solubility at 40 min

Fill blank: measured solubility at 40 min of the compound Cc1nn(C)cc1-c1nc2c(N3CCN(Cc4ccc(Cl)cc4)CC3)c(Cl)cnc2[nH]1.O=C(O)/C=C/C(=O)O [compound of Formula (1) fumarate] is ____. < 2100 µg/mL

###

Test: Solubility of the compound of Formula (1) in non-ionic surfactants
Type: physicochemical
Details: Tween 80 (non-ionic surfactant), organic solvent or mixture, thermodynamic from solid; in Tween 80 (sorbitan derivative); ~3 mg monofumarate, up to 1 ml, vortexed, sonicated, 45° C. 40 min
readoutKind: solubility at 40 min

Which solubility at 40 min reading was recorded for the molecule Cc1nn(C)cc1-c1nc2c(N3CCN(Cc4ccc(Cl)cc4)CC3)c(Cl)cnc2[nH]1.O=C(O)/C=C/C(=O)O [compound of Formula (1) fumarate] ? < 3700 µg/mL

###

Test: Solubility of the compound of Formula (1) in non-ionic surfactants
Assay type: physicochemical
Conditions: Softisan 378 (non-ionic surfactant), oil or lipid, thermodynamic from solid; in Softisan 378 (glycerol derivative)
Procedure: Approximately 3 mg of the compound of Formula (1) (monofumarate) was weighed out into clean HLPC vials. Various non-ionic surfactants were added in 200 or 300 μL portions up to 1 ml in total. After each addition, the sample was with vortexed (2×30 seconds) sonicated for 6 minutes, and once 1 ml total had been added the sample was kept in an oven at 45° C. for 40 minutes before being cooled to RT to aid dissolution. Observations are provided below: […]
readoutKind: solubility at 40 min

Form field: reported solubility at 40 min of Cc1nn(C)cc1-c1nc2c(N3CCN(Cc4ccc(Cl)cc4)CC3)c(Cl)cnc2[nH]1.O=C(O)/C=C/C(=O)O [compound of Formula (1) fumarate] < 4300 µg/mL

###

Test: Solubility of the compound of Formula (1) in non-ionic surfactants
Format: physicochemical
Settings: Gelucire 44/14 (non-ionic surfactant), organic solvent or mixture, thermodynamic from solid; in Gelucire 44/14 (fatty acid ester/glycerol derivative)
readoutKind: solubility at 40 min

Which solubility at 40 min value belongs to Cc1nn(C)cc1-c1nc2c(N3CCN(Cc4ccc(Cl)cc4)CC3)c(Cl)cnc2[nH]1.O=C(O)/C=C/C(=O)O [compound of Formula (1) fumarate] ? < 3500 µg/mL

###

Experiment: Solubility of the compound of Formula (1) in non-ionic surfactants
Format: physicochemical
Settings: Vitamin E TPGS (non-ionic surfactant), organic solvent or mixture, thermodynamic from solid; in Vitamin E TPGS (vitamin E derivative)
readoutKind: solubility at 40 min

// returns reported solubility at 40 min for input Cc1nn(C)cc1-c1nc2c(N3CCN(Cc4ccc(Cl)cc4)CC3)c(Cl)cnc2[nH]1.O=C(O)/C=C/C(=O)O [compound of Formula (1) fumarate] < 3200 µg/mL

###

Assay: Solubility of the compound of Formula (1) in non-ionic surfactants
Type: physicochemical
Settings: Labrafil 2125 (non-ionic surfactant), oil or lipid, thermodynamic from solid; in Labrafil 2125 (glycerol derivative)
readoutKind: solubility at 40 min

Quick one: solubility at 40 min for Cc1nn(C)cc1-c1nc2c(N3CCN(Cc4ccc(Cl)cc4)CC3)c(Cl)cnc2[nH]1.O=C(O)/C=C/C(=O)O [compound of Formula (1) fumarate] ? < 5500 µg/mL
